Data origin, for the record: ChEMBL document CHEMBL1134157

I'd be grateful if you could share measured IC50 for these entries.
molecular target: Matrix metalloproteinase-9 (Homo sapiens, UniProt P14780)
Sequence (P14780 whole entry): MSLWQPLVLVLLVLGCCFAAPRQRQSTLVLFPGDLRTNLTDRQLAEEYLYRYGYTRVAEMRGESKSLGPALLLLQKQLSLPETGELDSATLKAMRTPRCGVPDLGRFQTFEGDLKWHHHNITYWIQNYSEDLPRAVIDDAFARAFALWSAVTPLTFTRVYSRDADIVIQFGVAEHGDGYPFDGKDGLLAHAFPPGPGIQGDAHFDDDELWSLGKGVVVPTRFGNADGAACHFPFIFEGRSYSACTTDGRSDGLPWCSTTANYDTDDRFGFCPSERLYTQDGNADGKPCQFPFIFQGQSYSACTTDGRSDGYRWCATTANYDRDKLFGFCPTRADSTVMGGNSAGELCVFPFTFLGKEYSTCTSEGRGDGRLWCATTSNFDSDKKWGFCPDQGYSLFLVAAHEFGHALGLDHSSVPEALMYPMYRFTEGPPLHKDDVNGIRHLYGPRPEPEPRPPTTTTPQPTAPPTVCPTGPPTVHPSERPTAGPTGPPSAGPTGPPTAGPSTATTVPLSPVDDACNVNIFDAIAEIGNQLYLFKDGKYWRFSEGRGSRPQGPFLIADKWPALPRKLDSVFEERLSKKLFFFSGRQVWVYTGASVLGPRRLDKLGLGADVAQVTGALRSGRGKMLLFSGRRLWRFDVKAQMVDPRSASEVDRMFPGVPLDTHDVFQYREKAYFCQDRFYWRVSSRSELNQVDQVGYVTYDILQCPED
Answers are plain numbers, in nM.

Give IC50 for each of the items listed below.
1. N#Cc1ccc(-c2ccc(OCC(CCn3nnc4ccccc4c3=O)C(=O)NO)cc2)cc1 (stereo not drawn)
2. O=C(NO)C(CCn1ncc2ccccc2c1=O)COc1ccc(-c2ccccc2)cc1 (stereo not drawn)

1. 0.6
2. 33

Give IC50 for each of the items listed below.
1. N#Cc1ccc(-c2ccc(OCCC(=O)NO)cc2)cc1
2. O=C(NO)C(CCn1nnc2ccccc2c1=O)COCCc1ccc(-c2ccc(Cl)cc2)cc1 (stereo not drawn)
3. O=C(NO)C(CCN1C(=O)c2ccccc2S1(=O)=O)COc1ccc(-c2ccccc2)cc1 (stereo not drawn)
4. O=C(NO)C(CCn1nnc2ccccc2c1=O)COc1ccc(-c2ccc(Cl)cc2)cc1 (stereo not drawn)
5. CN1C(=O)N(CCC(COc2ccc(-c3ccccc3)cc2)C(=O)NO)C(=O)C1(C)C (stereo not drawn)
6. O=C(NO)C(CCCN1C(=O)c2ccccc2C1=O)COc1ccc(-c2ccccc2)cc1 (stereo not drawn)

[655, 3.6, 16, 0.6, 199, 221]
